- System: pyrophosphorylases in rice (Oryza sativa L.) raw extract
- Run description: NUSSA screening of pyrophosphorylases in rice raw extract
- Format: biochemical
- Stated conditions: α-D-sugar-1-phosphate 2.5 mM with UTP 1 mM
Readout name: Specific activity of pyrophosphorylases, rice (mU/mg)
Value expressed in mU/mg; do not type the unit.

Worked examples, 2 molecules total:
Molecule: O=C(O)[C@H]1O[C@H](OP(=O)(O)O)[C@H](O)[C@@H](O)[C@H]1O [α-D-Galacrurons{overscore (a)}ure-1-P, α-D-Galacturonic acid-1-P]
Meas value: 2.94
//
Molecule: CC(=O)N[C@H]1[C@@H](OP(=O)(O)O)O[C@H](CO)[C@H](O)[C@@H]1O [α-D-GalNAc-1-P, N-acetylgalactosamine-1-P]
Meas value: 0.18

In the following, a different molecule is considered.
q: Fill in Specific activity of pyrophosphorylases, rice for record O=C(O)[C@H]1O[C@H](OP(=O)(O)O)[C@H](O)[C@@H](O)[C@@H]1O [α-D-Glucurons{overscore (a)}ure-1-P, α-D-Glucuronic acid-1-P]
a: 14.27

====

- Tested on: pyrophosphorylases in rice (Oryza sativa L.) raw extract
- Run description: NUSSA screening of pyrophosphorylases in rice raw extract
- Assay type: biochemical
- Stated conditions: α-D-sugar-1-phosphate 2.5 mM with UTP 1 mM
Recorded Specific activity of pyrophosphorylases, rice, one value per entry.
Value expressed in mU/mg; do not type the unit.

Smiles str: O=P(O)(O)O[C@H]1OC[C@@H](O)[C@H](O)[C@H]1O
Meas value: 0.42
//
Smiles str: CC(=O)N[C@H]1[C@@H](OP(=O)(O)O)O[C@H](CO)[C@@H](O)[C@@H]1O
Meas value: 0.27
//
Smiles str: O=P(O)(O)O[C@H]1O[C@H](CO)[C@H](O)[C@H](O)[C@H]1O
Meas value: 10.41

In the following, a different compound is considered.
q: Fill in Specific activity of pyrophosphorylases, rice for record "N[C@H]1[C@@H](OP(=O)(O)O)O[C@H](CO)[C@H](O)[C@@H]1O"
a: 0.25
